Numbers sourced from paper PMC9516332.

biological target: panel of 255 wild-type kinases (Homo sapiens); assay: Kinase panel profiling at 1 µmol/L (MSA or IMAP), percentage inhibition; format: biochemical; conditions: NEK6; 1 µmol/L single concentration; read-out: %-inhibition, NEK6
Sequence (Q9HC98 whole entry): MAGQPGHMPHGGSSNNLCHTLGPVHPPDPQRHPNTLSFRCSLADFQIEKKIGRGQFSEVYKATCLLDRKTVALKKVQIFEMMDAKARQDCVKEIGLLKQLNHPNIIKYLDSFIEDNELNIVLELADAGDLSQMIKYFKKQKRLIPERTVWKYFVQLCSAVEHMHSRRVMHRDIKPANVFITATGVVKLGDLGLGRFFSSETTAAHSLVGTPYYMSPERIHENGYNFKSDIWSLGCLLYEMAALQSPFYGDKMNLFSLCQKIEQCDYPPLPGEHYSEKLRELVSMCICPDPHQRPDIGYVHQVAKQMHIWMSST
Property name: inhibition at 1 µM (%)

# annotated cases, reported inhibition at 1 µM shown
| Compound | Endpoint unit | inhibition at 1 µM |
| --- | --- | --- |
| Cc1cc(Nc2ncnc3ccc(NC4=NC(C)(C)CO4)cc23)ccc1Oc1ccn2ncnc2c1 | % | 0.486 |
| COc1cc2ncnc(Nc3ccc(F)c(Cl)c3)c2cc1NC(=O)/C=C/CN1CCCCC1 | % | -4.7 |

I: C[C@H](Nc1ncnc2nc[nH]c12)c1cc2cccc(Cl)c2c(=O)n1-c1ccccc1
II: COc1ccc(CN2C3CC2CN(c2ccc(-c4cc(OCC(C)(C)O)cn5ncc(C#N)c45)cn2)C3)cn1
Lookup: Look at I and II . Which one has the lower recorded inhibition at 1 µM number? Give the label of your selection.
Found: I
